Biological target: mouse VISTA (mVISTA) (Mus musculus, UniProt Q9D659)
Construct: expressed in transfected cells; host or cells: Human embryonic kidney 293T cells
Sequence (Q9D659 33-308): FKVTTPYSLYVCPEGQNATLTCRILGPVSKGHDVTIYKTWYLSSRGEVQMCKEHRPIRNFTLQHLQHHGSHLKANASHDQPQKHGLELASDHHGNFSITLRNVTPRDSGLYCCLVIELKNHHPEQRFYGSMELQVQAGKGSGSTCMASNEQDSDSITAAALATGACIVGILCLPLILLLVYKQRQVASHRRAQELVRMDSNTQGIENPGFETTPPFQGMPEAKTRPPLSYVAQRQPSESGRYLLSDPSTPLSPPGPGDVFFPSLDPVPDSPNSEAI
Assay: Cell-Based Binding High-Content Assay For mVISTA (HC CBA mVISTA)
Settings: the 20th table, scaffold drawing 23; read-out: HC CBA mVISTA IC50
pIC50: −log10 of the molar value. Positions of bridges follow the written chain, without caps; N, C: chain ends. Non-standard residues stand in square brackets, D forms with d. Residues, ends and D or L forms follow the SMILES beside them. Phe(3,4-(OMe)2) = COc1ccc(C[C@H](N)C(=O)O)cc1OC; Ahp(2) = CCCCC[C@H](N)C(=O)O; NHexGly = CCCCCCNCC(=O)O; Nle = CCCC[C@H](N)C(=O)O
measured quantity: pIC50

• CCCCCCN1CC(=O)N[C@@H](Cc2ccc(O)cc2)C(=O)N[C@@H](CCCC)C(=O)N[C@H](CC(N)=O)C(=O)N[C@@H](CCCNC(=N)N)C(=O)N[C@@H](CC(C)C)C(=O)N[C@@H](CCCCC)C(=O)N2CCC[C@H]2C(=O)N[C@@H](C(C)C)C(=O)N[C@@H](CO)C(=O)N[C@H](C(=O)NCC(=O)O)CSCC(=O)N[C@@H](Cc2c[nH]c3ccccc23)C(=O)N[C@@H](Cc2ccc(O)cc2)C(=O)N[C@@H](CC(=O)O)C1=O [compound 1471] ({CH2CO}-WYD[NHexGly]Y[Nle][dN]RL[Ahp(2)]PVSCG-OH; thioether N-14) = 7.48
• CCCCCCN1CC(=O)N[C@@H](Cc2ccc(O)cc2)C(=O)N[C@@H](CCCC)C(=O)NCC(=O)N[C@@H](CCCNC(=N)N)C(=O)N[C@@H](CC(C)C)C(=O)N[C@@H](CCCCC)C(=O)N2CCC[C@H]2C(=O)N[C@@H](C(C)C)C(=O)N[C@@H](CC(=O)O)C(=O)N[C@H](C(=O)NCC(=O)O)CSCC(=O)N[C@@H](Cc2ccc(OC)c(OC)c2)C(=O)N[C@@H](Cc2ccc(O)cc2)C(=O)N[C@@H](CC(=O)O)C1=O [compound 1458] ({CH2CO}-[Phe(3,4-(OMe)2)]YD[NHexGly]Y[Nle]GRL[Ahp(2)]PVDCG-OH; thioether N-14) = 7.47
• CCCCCCN1CC(=O)N[C@@H](Cc2ccc(O)cc2)C(=O)N[C@@H](CCCC)C(=O)NCC(=O)N[C@@H](CCCNC(=N)N)C(=O)N[C@@H](CC(C)C)C(=O)N[C@@H](CCCCC)C(=O)N2CCC[C@H]2C(=O)N[C@@H](C(C)C)C(=O)N[C@@H](CC(=O)O)C(=O)N[C@H](C(=O)NCC(=O)O)CSCC(=O)N[C@@H](Cc2ccc(O)cc2)C(=O)N[C@@H](Cc2ccccc2)C(=O)N[C@@H](CC(=O)O)C1=O [compound 1472] ({CH2CO}-YFD[NHexGly]Y[Nle]GRL[Ahp(2)]PVDCG-OH; thioether N-14) = 7.81

# credit: patent US20240218022A1
